- measured target: UniProt P78527
- measurement protocol: DNA-PK Enzyme-Linked Immunosorbent Assay (phosphorylation of GST-p53 (1-101) peptide)
- Type: biochemical
- condition details: ELISA, ATP 20 μM
Where a name gives a salt, the structure may show the parent alone.
Reported IC50 is given for each of the following compounds.

# example entries with known answers
{"compound": "CN1C(=O)C2(CCC2)c2c1cnc1ccc(-c3cnc(N4CCC(N5CCCCC5)CC4)c(NS(=O)(=O)c4ccc(F)cc4F)c3)cc21 [Example 206, hydrochloride]", "readout": "IC50", "observed": "< 500 pM"}
{"compound": "Cc1ncc(S(=O)(=O)Nc2cc(-c3ccc4ncc5c(c4c3)C3(CCC3)C(=O)N5C)cnc2OCCCN(C)C)s1", "readout": "IC50", "observed": "500 to 1000 pM"}
{"compound": "CN(C)CCCOc1ncc(-c2ccc3ncc4c(c3c2)C2(CCC2)C(=O)N4C)cc1NS(=O)(=O)N1CCNCC1", "readout": "IC50", "observed": "< 500 pM"}
{"compound": "CN1CCN(c2ncc(-c3ccc4ncc5c(c4c3)C3(CCC3)C(=O)N5C)cc2NS(=O)(=O)N(C)C)CC1", "readout": "IC50", "observed": "< 500 pM"}
{"compound": "CN(C)CCCOc1ncc(-c2ccc3ncc4c(c3c2)C2(CCC2)C(=O)N4C)cc1NS(=O)(=O)N(C)C [Example 149, hydrochloride]", "readout": "IC50", "observed": "500 to 1000 pM"}

Let us move to another entry and its IC50.
State the recorded IC50 for this entry: CN1C(=O)C2(CCC2)c2c1cnc1ccc(-c3cnc(OCCCN4CCC(F)C4)c(NS(C)(=O)=O)c3)cc21 (stereo not drawn)
500 to 1000 pM
